- target_system: T1, PPR10 ND variant (maize, UniProt B8Y6I0 96-786, N349D)
- T1 sequence: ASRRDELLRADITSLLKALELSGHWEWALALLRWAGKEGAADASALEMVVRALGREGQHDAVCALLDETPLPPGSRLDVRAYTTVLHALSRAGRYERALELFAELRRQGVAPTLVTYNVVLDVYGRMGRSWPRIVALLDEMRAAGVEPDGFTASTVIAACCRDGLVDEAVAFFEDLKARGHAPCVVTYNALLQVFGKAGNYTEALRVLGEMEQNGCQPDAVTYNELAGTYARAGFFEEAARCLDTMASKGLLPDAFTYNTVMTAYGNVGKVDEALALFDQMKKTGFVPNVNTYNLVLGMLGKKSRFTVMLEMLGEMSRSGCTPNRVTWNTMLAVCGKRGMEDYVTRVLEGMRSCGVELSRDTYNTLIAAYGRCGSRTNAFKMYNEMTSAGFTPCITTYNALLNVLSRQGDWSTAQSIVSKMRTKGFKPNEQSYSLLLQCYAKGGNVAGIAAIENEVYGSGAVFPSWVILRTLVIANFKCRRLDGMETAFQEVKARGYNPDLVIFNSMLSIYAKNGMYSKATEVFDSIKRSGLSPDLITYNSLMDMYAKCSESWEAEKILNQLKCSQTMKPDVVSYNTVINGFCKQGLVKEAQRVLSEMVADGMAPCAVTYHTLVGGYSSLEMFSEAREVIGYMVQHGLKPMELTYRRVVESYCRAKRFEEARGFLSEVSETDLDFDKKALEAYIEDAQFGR
- assay_explanation: EMSA; EMSA: radiolabeled RNA 15 pM, protein 0, 5, 10, 20 nM; binding buffer and temperature by reference [12]; protein stock in 400 mM NaCl, 50 mM Tris-HCl pH 7.5, 5
- experimental_conditions: protein: recombinant; tags: MBP fusion removed by TEV cleavage; label: radiolabeled; single-stranded
parameter_measured: pKd
Lab note — pKd values are minus log10 of concentrations in M.

Query :: # get_value(readout='pKd', item= GUACCCUUAACCAUUUC (ssRNA) [CC RNA] )
Result :: 7.77
